Please go through the items and note down their growth inhibition.
# test: NCI Yeast Anticancer Drug Screen. Data for the sgs1 mgt1 strain (AID 161);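 further: 0% = growth of cultures given vehicle only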
# particulars: S. cerevisiae sgs1 mgt1 strain, at 50.0 µM, active compounds read high
Compounds without any hit were thinned out: in the full panel of roughly 79,000, 15% have a hit.
Expressed in %, but write only the number.

Returns the measured growth inhibition for the input compound. Input: CC1=CC(CO)C2C(=O)NC(=O)C2C1C (stereo not drawn)
-9.75

Returns the measured growth inhibition for the input compound. Input: CC(C)(C)/C=C/N=NNc1ccccc1C(=O)NC(C)(C)C
1.8

Returns the measured growth inhibition for the input compound. Input: O=c1[nH]c(Sc2ccccc2)nc2ccccc12
13.1

Returns the measured growth inhibition for the input compound. Input: O=C(NC(=O)c1ccccc1)OC(c1ccccc1)C1CO1 (stereo not drawn)
11.4

Returns the measured growth inhibition for the input compound. Input: c1ccc2c(SCN3CCOCC3)cccc2c1 (tested in a mixture with another compound)
39

Returns the measured growth inhibition for the input compound. Input: COc1ccc(/C=N/N2CCN(/N=C/c3ccc(OC)c(OC)c3)CC2)cc1OC
3.25

Returns the measured growth inhibition for the input compound. Input: CCOC(=O)C(NC(=O)CC(C)C)(N1CCN(c2cc3c(cc2F)c(=O)c(C(=O)O)cn3C2CC2)CC1)C(F)(F)F (stereo not drawn)
-0.2

Returns the measured growth inhibition for the input compound. Input: O=c1oc2ccccc2c(O)c1C(c1cc(OCc2ccccc2)cc(OCc2ccccc2)c1)c1c(O)c2ccccc2oc1=O
-2.1

Returns the measured growth inhibition for the input compound. Input: FC(F)(F)C(F)(F)C(F)(F)c1nnnn1-c1ccccc1
-17.1

Returns the measured growth inhibition for the input compound. Input: COC(=O)Nc1cccc(OC(=O)Nc2cccc(Cl)c2)c1
26.6

Returns the measured growth inhibition for the input compound. Input: CCCCNS(=O)(=O)c1ccc(C)cc1
-23

Returns the measured growth inhibition for the input compound. Input: CC1CN(c2ccc(Cl)cc2)CC(C)(C)OC(=O)O1 (stereo not drawn)
-10.6

Returns the measured growth inhibition for the input compound. Input: NS(=O)(=O)c1cc(Br)ccc1Br
-0.35

Returns the measured growth inhibition for the input compound. Input: CC/C(C)=N/NC(=O)c1ccc([N+](=O)[O-])cc1
20.8

Returns the measured growth inhibition for the input compound. Input: OCC(O)C(O)C(CN=Cc1ccccc1O)N=Cc1ccccc1O (stereo not drawn)
3

Returns the measured growth inhibition for the input compound. Input: Cc1ccc(S(=O)(=O)NC(=O)C2(Br)S(=O)(=O)OCCOS2(=O)=O)cc1
6.1

Returns the measured growth inhibition for the input compound. Input: O=[N+]([O-])c1ccc(N=C/C=C/Nc2ccc([N+](=O)[O-])cc2)cc1
10.5

Returns the measured growth inhibition for the input compound. Input: O=C(/C=C\c1ccc([N+](=O)[O-])cc1)c1ccccc1
-2.4

Returns the measured growth inhibition for the input compound. Input: COc1cc2cc(OC)c3cc4c(cc3c2c(OC)c1OC)OCO4
19.2

Returns the measured growth inhibition for the input compound. Input: O=C(/C=C/c1ccccc1)NC(=S)Nc1ccccc1F
-23.9

Returns the measured growth inhibition for the input compound. Input: CC1(C(Cl)(Cl)Cl)C=C/C(=N\O)C(Cl)=C1 (stereo not drawn)
-1.9

Returns the measured growth inhibition for the input compound. Input: O=S(=O)(c1ccc(O)c(Cl)c1)c1ccc(O)c(Cl)c1
16.1

Returns the measured growth inhibition for the input compound. Input: CCOc1cc(/C=N\NC(=S)N/N=C/c2ccc(O)c(OCC)c2)ccc1O
-4.35
